The measured values listed here are drawn from paper PMC6828636.

Subject Of Test: CYP2C19 (Homo sapiens, UniProt P33261)
Sequence (P33261 whole entry): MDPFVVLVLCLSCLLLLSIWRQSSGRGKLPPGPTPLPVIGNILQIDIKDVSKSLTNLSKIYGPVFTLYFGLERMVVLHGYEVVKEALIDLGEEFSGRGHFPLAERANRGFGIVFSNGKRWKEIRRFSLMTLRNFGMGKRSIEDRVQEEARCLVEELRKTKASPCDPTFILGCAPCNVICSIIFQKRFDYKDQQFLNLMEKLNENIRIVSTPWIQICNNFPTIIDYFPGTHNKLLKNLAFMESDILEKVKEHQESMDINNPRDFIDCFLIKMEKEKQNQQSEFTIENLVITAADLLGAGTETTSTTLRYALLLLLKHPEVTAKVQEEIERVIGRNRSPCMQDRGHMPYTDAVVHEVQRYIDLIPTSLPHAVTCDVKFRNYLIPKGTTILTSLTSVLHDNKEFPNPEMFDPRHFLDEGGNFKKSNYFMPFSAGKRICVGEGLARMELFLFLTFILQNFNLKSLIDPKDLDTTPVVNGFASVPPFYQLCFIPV
Test Summary: CYP2C19 inhibition in human liver microsomes
Type: in vitro ADME
Run Parameters: read-out: IC50, CYP2C19; human liver microsomes; substrate S-mephenytoin
pIC50: −log10 of the molar value.
Measured pIC50 accompanies every entry in the list below.
Measurement Kind: pIC50

Compound	Subject Of Test	Reported Relation	Data Value
C[C@@H](Cn1ccc(-c2ccc(C#N)c(Cl)c2)n1)NC(=O)c1cc([C@@H](C)O)[nH]n1 [(S,R)-darolutamide]	CYP2C19 (Homo sapiens, UniProt P33261)	=	4.33
CC(=O)c1cc(C(=O)N[C@@H](C)Cn2ccc(-c3ccc(C#N)c(Cl)c3)n2)[nH]n1 [Keto-darolutamide, keto-darolutamide]	CYP2C19 (Homo sapiens, UniProt P33261)	=	4.40
C[C@H](O)c1cc(C(=O)N[C@@H](C)Cn2ccc(-c3ccc(C#N)c(Cl)c3)n2)n[nH]1 [(S,S)-darolutamide]	CYP2C19 (Homo sapiens, UniProt P33261)	<	4.30
